Assay: qHTS for Inhibitors of ATXN expression: Validation (AID 588378); note: nearly all actives have a fitted effect of over 75% in size; note: potency is the fitted concentration of half-maximal effect
Settings: cell-based ATXN2 expression reporter assay, luminescence; series mostly up to 57.1 µM
Text: Spinocerebellar ataxia type 2 (SCA2) is a multisystem neurodegenerative disease caused by a dominantly-acting mutation leading to expansion of a polyQ domain in the ataxin-2 protein (ATXN2). SCA2 patients develop progressive ataxia and later lose function in other neuronal systems. Prominent parkinsonian signs develop in some patients. Similar to many neurodegenerative disorders, no symptomatic or disease-modifying treatments are known. […]
Results filed as inconclusive are left out. The source made the active and inactive calls. Calls come from the whole dose curve; as a rule, active = well fitted inhibition curve with a large enough effect; inconclusive = small, poorly fitted or top-dose-only effect; inactive = no such curve, though single readings can be large or run the other way.
Reported property: Potency

>>> assay_result("CC1(C(=O)O)C2CCC(O2)C1(C)C(=O)O (configuration not stated)")
"7.94 µM (active)"
>>> assay_result("CC(N)Cc1c[nH]c2ccc(OCc3cccs3)cc12 (configuration not stated)")
"28.2 µM (active)"
>>> assay_result("NCCc1c[nH]c2ccc(C(N)=O)cc12")
"inactive"
>>> assay_result("C=CCN1CC[C@]23c4c5ccc(O)c4O[C@@H]2/C(=N/N=C2\\CC[C@@]4(O)C6Cc7ccc(O)c8c7[C@@]4(CCN6CC=C)[C@@H]2O8)CC[C@@]3(O)C1C5")
"20 µM (active)"
>>> assay_result("NC(=O)c1ccc(OCC(O)CN2CC=C(c3ccc(F)cc3)CC2)cc1 (configuration not stated)")
"inactive"
>>> assay_result("CN1CCc2cc(O)cc3c2[C@H]1Cc1ccc(O)c(O)c1-3")
"inactive"
>>> assay_result("C[C@H](N)CN1CCc2ccc(Br)cc21")
"15.8 µM (active)"
>>> assay_result("NC(C(=O)O)c1cc(=O)[nH]o1 (configuration not stated)")
"inactive"
>>> assay_result("C[N+](C)(C)CCOC(=O)CBr")
"inactive"
>>> assay_result("C/C(O)=C(\\C#N)C(=O)Nc1cc(Br)ccc1Br")
"inactive"
>>> assay_result("Ic1ccccc1CNC1C2CCN(CC2)C1C(c1ccccc1)c1ccccc1 (configuration not stated)")
"12.6 µM (active)"
>>> assay_result("OCc1cnc[nH]1")
"inactive"

----------
Experiment: qHTS assay for cell viability of HEK293 cells (AID 743288); note: % is set by controls: 0 for no effect and ±100 for the full control effect; nearly all actives have a fitted effect of over 50% in size
Conditions: ATP luminescence (CellTiter-Glo), 18 h; hits give low values
Text: National Center for Advancing Translational Sciences [NCATS] NIH Chemical Genomics Center [NCGC] U.S. Environmental Protection Agency [EPA] National Institutes of Environmental Health Sciences [NIEHS] National Toxicology Program [NTP] […] The CellTiter-Glo Luminescent Cell Viability Assay (Promega, Madison, WI) is a homogeneous method to determine the number of viable cells in culture based on quantitation of the ATP present, which signals the presence of metabolically active cells. […]
Inconclusive results are not listed.
Measured max response, listed per entry for reference.
Reported property: max response (%)

>>> assay_result("[O]=[Cd]")
3.33
>>> assay_result("CCCCCl")
-0.598
>>> assay_result("N#CN")
-11.1
>>> assay_result("CC(C)CCON=O")
-5.29
>>> assay_result("O=C/C=C/c1ccccc1")
-23.6
>>> assay_result("S=C=S")
-4.58
>>> assay_result("C[C@H]1CCC[C@H](O)CCCCCc2cc(O)cc(O)c2C(=O)O1")
-4.88
>>> assay_result("C#CCN1CC(=O)N(COC(=O)C2C(C=C(C)C)C2(C)C)C1=O (stereo not drawn)")
-15.4
>>> assay_result("C=CCN=C=S")
-7.74
>>> assay_result("O=Cc1ccco1")
6.18
>>> assay_result("O=C1CCO1")
5.83
>>> assay_result("COc1ccc2c(c1OC)C(=O)OC2C1c2cc3c(cc2CCN1C)OCO3 (stereo not drawn)")
-5.26
>>> assay_result("ClCC1CO1 (stereo not drawn)")
3.04
